Measured values drawn from patent US7811992B2 for this set.

Biological target: human angiotensin AT2 receptor (Homo sapiens)
Sequence (P50052 1-363): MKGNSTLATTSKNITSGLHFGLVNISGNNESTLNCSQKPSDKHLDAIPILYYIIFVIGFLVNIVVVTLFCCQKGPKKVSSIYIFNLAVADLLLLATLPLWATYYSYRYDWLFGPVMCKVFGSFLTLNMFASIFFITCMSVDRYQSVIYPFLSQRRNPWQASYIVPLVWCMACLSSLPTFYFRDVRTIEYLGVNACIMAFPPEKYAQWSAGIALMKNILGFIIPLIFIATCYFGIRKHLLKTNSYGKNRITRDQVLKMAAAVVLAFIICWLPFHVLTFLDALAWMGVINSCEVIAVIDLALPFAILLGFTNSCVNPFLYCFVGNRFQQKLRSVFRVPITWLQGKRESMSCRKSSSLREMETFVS
Settings: compounds screened at 10 μM; % inhibition of binding at the AT2 receptor
Square brackets hold non-standard residues; d marks the D form. Ends that are not written are not given here. 2Thi = N[C@@H](Cc1cccs1)C(=O)O
measured-property: Activity/inhibition ATII binding assay (%)
Answer in %, number only, no unit symbol.

Arg-Pro-Pro-Gly-Thi-Ser-DPhe-Thi-Arg (RPPG[2Thi]S[dF][2Thi]R) [[Thi5,8,DPhe7] Bradykinin]: 53
Arg-Pro-Pro-Gly-Phe (RPPGF) [Bradykinin (1-5)]: 1
DArg-Arg-Pro-Hyp-Gly-Igl-Ser-Dlgl-Oic-Arg (XRPXGXSXXR; D-residues; non-natural residues) [B9430]: 70
(DArg-Arg-Pro-Hyp-Gly-Thi-Ser-DTic-Oic-Arg (XRPXGXSXXR; D-residues; non-natural residues) [Hoe 140, reference compound]: 29
N-Adamantaneacetyl-DArg-Arg-Pro-Hyp-Gly-Thi-Ser-DPhe-Thi-Arg: 61
RPPGFS [Bradykinin (1-6)]: −12
PPGFSPFR [Bradykinin (2-9)]: −13
DArg-Arg-Pro-Hyp-Gly-Thi-Ser-Dlgl Oic-Arg (XRPXGXSXXR; D-residues; non-natural residues) [B9340]: 35

Now look at this entry.
In: Please report the recorded Activity/inhibition ATII binding assay for PPGFSP [Bradykinin (2-7)] .
Out: −6

----------
Listing of entries alongside the reported % Inhibition ATII receptor.
Target: human angiotensin AT2 receptor (Homo sapiens)
Sequence (P50052 1-363): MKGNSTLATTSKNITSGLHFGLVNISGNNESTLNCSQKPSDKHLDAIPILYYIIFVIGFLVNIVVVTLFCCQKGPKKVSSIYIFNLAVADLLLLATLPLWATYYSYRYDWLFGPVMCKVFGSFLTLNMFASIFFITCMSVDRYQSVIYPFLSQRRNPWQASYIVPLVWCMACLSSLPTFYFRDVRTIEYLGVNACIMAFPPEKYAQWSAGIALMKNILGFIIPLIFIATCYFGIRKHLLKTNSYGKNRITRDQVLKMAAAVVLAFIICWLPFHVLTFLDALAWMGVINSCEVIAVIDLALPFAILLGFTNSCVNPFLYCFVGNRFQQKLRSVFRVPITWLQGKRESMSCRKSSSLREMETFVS
Details: screened at 10 μM
Square brackets hold non-standard residues; d marks the D form. Ends that are not written are not given here.
Your answer is read as %, so omit the unit and give the number.

VP064 (XRPXGXSXXR; D-residues; non-natural residues): 70

In: Find the recorded % Inhibition ATII receptor belonging to VP052 (RPPGFSPYR) and report it.
Out: −1

In: Now consider VP042 (XRPXGXSXXR; D-residues; non-natural residues) and answer again.
Out: 29

In: Also VP062 (PPGFSPFR) , if possible.
Out: −13

In: Subsequent entry: VP061 (PPGFSP)
Out: −6

In: Another substance to check: VP063 (XRPXGXSXXR; D-residues; non-natural residues)
Out: 35

In: Can you handle VP059 (RPPGFS) next?
Out: −12

In: Then VP043 (RPPGFS[dF]FR) ?
Out: 9
